So I've got a bunch of compounds here, and I need their PKM2 % activation values.
target: Pyruvate kinase M2 (PKM2) in H1299 cells (Homo sapiens, UniProt P14618); construct: endogenous in cells; host or cells: H1299; experiment: Cell based assay for activation of pyruvate kinase M2 in lung carcinoma cell line (NADH/LDH coupled assay on cell lysate); conditions: PKM2 cellular assay; maximal activation level relative to the activation level achieved by AG-348 @ 10 μM
Sequence (P14618 2-531 limits assumed): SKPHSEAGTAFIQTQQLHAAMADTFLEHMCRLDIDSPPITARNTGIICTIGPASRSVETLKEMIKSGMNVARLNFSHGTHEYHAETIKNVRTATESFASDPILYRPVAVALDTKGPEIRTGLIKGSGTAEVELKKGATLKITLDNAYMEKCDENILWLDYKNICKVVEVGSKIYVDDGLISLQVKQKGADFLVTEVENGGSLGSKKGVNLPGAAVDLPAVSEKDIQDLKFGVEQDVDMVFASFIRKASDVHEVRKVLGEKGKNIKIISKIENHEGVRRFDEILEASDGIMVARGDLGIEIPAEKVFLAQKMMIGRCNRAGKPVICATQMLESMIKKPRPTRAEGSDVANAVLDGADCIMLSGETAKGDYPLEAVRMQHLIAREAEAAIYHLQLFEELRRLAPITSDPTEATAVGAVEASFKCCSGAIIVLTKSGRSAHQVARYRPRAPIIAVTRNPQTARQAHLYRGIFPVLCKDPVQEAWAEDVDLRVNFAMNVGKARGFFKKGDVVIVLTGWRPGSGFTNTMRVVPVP
Lab book: enter the figure in %, no units written.

stdin: Consider the compound C[C@@H](O)[C@H](C(=O)N1Cc2cn(S(=O)(=O)c3ccc4c(c3)NCCO4)nc2C1)c1ccccc1 [Compound 23] and give its measured PKM2 % activation.
stdout: 116

stdin: Consider the compound C[C@@H](O)[C@H](C(=O)N1Cc2cn(S(=O)(=O)c3ccc4ncsc4c3)nc2C1)c1ccccc1 (single isomer, unassigned) and give its measured PKM2 % activation.
stdout: 101

stdin: Consider the compound O=C([C@@H](CO)c1ccccc1)N1Cc2cn(S(=O)(=O)c3ccc4c(c3)NCCO4)nc2C1 (single isomer, unassigned) and give its measured PKM2 % activation.
stdout: 79

stdin: Consider the compound O=C(N1Cc2cn(S(=O)(=O)c3ccc4ncsc4c3)nc2C1)[C@]1(c2ccccn2)CCOC1 (single isomer, unassigned) and give its measured PKM2 % activation.
stdout: 60

stdin: Consider the compound O=C([C@@H](CO)c1ccccc1)N1Cc2cn(S(=O)(=O)c3ccc(OC(F)F)cc3)nc2C1 (single isomer, unassigned) and give its measured PKM2 % activation.
stdout: 116

stdin: Consider the compound O=C([C@@H](CO)c1ccccc1)N1Cc2cn(S(=O)(=O)c3ccc4c(c3)OCCO4)nc2C1 (single isomer, unassigned) and give its measured PKM2 % activation.
stdout: 42

All values here come from patent US20230159538A1.
